TEST_SUMMARY: growth inhibitors of H69AR lung tumor, primary screen, human, duplicate replicates (AID 580);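 also: 100% = mean luminescence of untreated wells and 0% = no signal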
CONDITION_PARAMETERS: H69AR lung tumor cells viability, ATP luminescence, 72 h; at 10 µM; stronger effect = lower value
So basically, if viability comes in under 90% it's Fulfilled, and if it's 90% or more it's Not fulfilled.

As a guide, the following entries are already answered.
O=P(CCNCc1ccco1)(c1ccccc1)c1ccccc1    Not fulfilled
COC(=O)c1c(NC(=O)CCc2ccc(C)o2)sc(C)c1C    Fulfilled

Exam item: viability under 90%? Item: CC(CN1CCOCC1)(NS(=O)(=O)c1ccccc1)c1ccccc1 (stereo unspecified)
Marked response: Not fulfilled

Exam item: viability under 90%? Item: COc1ccc(C2C3=C(CCCC3=O)Nc3nc(SCc4ccccc4)nn32)cc1OC (stereo unspecified)
Marked response: Fulfilled

Exam item: viability under 90%? Item: `CN(C)c1cccc(NC(=O)CCc2ccccc2)c1`
Marked response: Not fulfilled

Exam item: viability under 90%? Item: `CCCCC(=O)Nc1ccc(NC(=O)C2CC2)nc1`
Marked response: Not fulfilled

Exam item: viability under 90%? Item: COc1ccccc1-c1nc2n(n1)C(c1ccc(Cl)cc1)C(C(N)=O)=C(C)N2 (stereo unspecified)
Marked response: Fulfilled

Exam item: viability under 90%? Item: `COC(=O)c1cc2ccsc2n1CC(=O)N(C)c1ccccc1`
Marked response: Fulfilled

Exam item: viability under 90%? Item: CCn1c(C(=O)N2CCCC(C(=O)O)C2)cc2sccc21 (stereo unspecified)
Marked response: Not fulfilled

----------
TEST_SUMMARY: reversal of MRP1-mediated doxorubicin resistance, pilot screen, H69AR cells, doxorubicin co-treatment (AID 601)
CONDITION_PARAMETERS: H69AR cells + 2 uM doxorubicin, CellTiter-Glo, 72 h; measured here: viability with 2 uM doxorubicin; at 10 µM; stronger effect = lower value
viability: recorded values
Please state the figure in %; there is no need to write the unit.

Study these solved cases before continuing.
N#Cc1c(N)oc(-c2cccs2)c1-c1cccs1    93.2
CCOc1ccc(S(=O)(=O)N(C)C)cc1-c1nc2c(C(C)(C)C)nn(C)c2c(=O)[nH]1    78.1
CCCCOc1ccccc1NC(=O)c1ccco1    77.3
CCOc1nc(NCCC2=CCCCC2)nc(N2CCOCC2)n1    82.1
CCc1nn(CC(=O)N2CCN(Cc3ccc4c(c3)OCO4)CC2)c(=O)c2cc3occc3n12    94.2

# evaluate next
Exam item: Returns the measured viability for the input molecule. Input: `Nc1nc(N)c2nc(-c3ccccc3)c(N)nc2n1`
Marked response: 78

----------
TEST_SUMMARY: 384-well plate pilot, post-Golgi transport modulator project, inhibition of yeast transport mutant growth (AID 636)
CONDITION_PARAMETERS: absorbance 615 nm, about 18 h, stronger effect = higher value
The source made the active and inactive calls. Rule as the data show it: active = inhibition above about 31%; inactive = the rest.
inhibition: recorded values

CCOC(=O)Cn1nnc(-c2ccc(SC)cc2)n1    -8.38% (inactive)
CCN(CC)CC(=O)Nc1ccc(-c2nc3cc(NC(=O)CN(CC)CC)ccc3o2)cc1    -2.13% (inactive)
COc1ccc(S(=O)(=O)NC(C)C(=O)Nc2cccc(C(C)=O)c2)cc1 (stereo unspecified)    -4.8% (inactive)
CCc1ccccc1OCCCCN1CCCC1    -5.06% (inactive)
CC1(C)CC(=O)C2=C(C1)Nc1nc(SCCN3CCOCC3)[nH]c(=O)c1C2c1cccs1 (stereo unspecified)    1.69% (inactive)
Cc1oc2c(c1C(=O)NCc1ccccc1)CCCC2    -4.93% (inactive)

Exam item: Returns the measured inhibition for the input compound. Input: COc1ccccc1C(=O)NC(C)C(c1cccs1)N1CCN(C)CC1 (stereo unspecified)
Marked response: 1.58% (inactive)

Exam item: Returns the measured inhibition for the input compound. Input: `O=C(Nc1ccc(F)cc1)NC1CCN(Cc2nnnn2Cc2ccco2)CC1`
Marked response: -5.21% (inactive)

Exam item: Returns the measured inhibition for the input compound. Input: `COc1ccc(-c2oc3ncn(CCN4CCOCC4)c(=N)c3c2-c2ccc(OC)cc2)cc1`
Marked response: -4.73% (inactive)

Exam item: Returns the measured inhibition for the input compound. Input: `O=C(c1cccs1)N(Cc1ccco1)Cc1cc2ccccc2[nH]c1=O`
Marked response: 4.19% (inactive)

Exam item: Returns the measured inhibition for the input compound. Input: `CCCn1c(SCC(=O)Nc2nnc(-c3ccccc3)s2)nnc1-c1ccccn1`
Marked response: -2.7% (inactive)

Exam item: Returns the measured inhibition for the input compound. Input: `COc1cccc(-n2c(C)nc3c(cnn3-c3ccc(Cl)cc3)c2=O)c1`
Marked response: -4.47% (inactive)

Exam item: Returns the measured inhibition for the input compound. Input: `CS(=O)(=O)N(CC(=O)Nc1cccc(F)c1)Cc1ccccc1`
Marked response: -3.78% (inactive)

Exam item: Returns the measured inhibition for the input compound. Input: CCCCN1C(=O)C2C(C(=O)Nc3cccc(OC)c3)C3C=CC2(O3)C1C(=O)NC1CCCCC1C (stereo unspecified)
Marked response: -2.86% (inactive)

Origin of values: PubChem BioAssay
